Entries and their solubility (mole fraction) values follow.
# measurement setup: in water, 303.15 K
Answer with a bare number; do not write a unit.

{"molecule": "Oc1cc(O)c2cc1Cc1cc(c(O)cc1O)Cc1cc(c(O)cc1O)Cc1cc(c(O)cc1O)C2", "solubility (mole fraction)": "7.16e-06"}
{"molecule": "C[C@@H](O)[C@H]1C(=O)N2C(C(=O)O)=C(S[C@@H]3CN[C@H](C(=O)N(C)C)C3)[C@H](C)[C@H]12.O.O.O", "solubility (mole fraction)": 0.000782}
{"molecule": "Cc1nc2n(c(=O)c1CCN1CCC(c3noc4cc(F)ccc34)CC1)CCCC2", "solubility (mole fraction)": "1e-07"}
{"molecule": "C=CC1=C(C(=O)O)N2C(=O)[C@@H](NC(=O)/C(=N\\OCC(=O)O)c3csc(N)n3)[C@H]2SC1", "solubility (mole fraction)": "2.01e-05"}
{"molecule": "NCCS(=O)(=O)O", "solubility (mole fraction)": 0.0168}

Per the records, this molecule ( "O=C(O)[C@@H]1C[C@@H](O)CN1" ) has solubility (mole fraction) equal to 0.0525

Per the records, this molecule ( C[C@@H](O)[C@H]1C(=O)N2C(C(=O)[O-])=C(SC3Cn4cnc[n+]4C3)[C@H](C)[C@H]12 (some centres undefined) ) has solubility (mole fraction) equal to 0.000521

Per the records, this molecule ( "Cc1ncc(CO)c(CO)c1O.Cl" ) has solubility (mole fraction) equal to 0.0215

Per the records, this molecule ( O=C1N2CN3C(=O)N4CN5C(=O)N6CN7C(=O)N8CN9C(=O)N%10CN%11C(=O)N%12CN1C1C2N2CN%13C(=O)N(CN%14C(=O)N(CN%15C(=O)N(CN%16C(=O)N(CN%17C(=O)N(CN1C2=O)C%12C%11%17)C%10C9%16)C8C7%15)C6C5%14)C4C3%13 (centres undefined) ) has solubility (mole fraction) equal to 0.0027
